System: arterial blood pressure of normotensive Wistar rats
ASSAY NAME: Influence on blood pressure in normotensive anesthetized rats after i.v. administration
Type: in vivo, rat
CONDITIONS USED: 2.0 mg/kg i.v., 5 min, mean, n = 6
READOUT LABEL: Systolic blood pressure

q: // map COc1cccc(N2CCN(CC(O)CN3C(=O)N(Cc4ccc(Cl)cc4Cl)C(=O)C3(C)C)CC2)c1.Cl (stereo not shown) [Compound 14] to recorded Systolic blood pressure (system: arterial blood pressure of normotensive Wistar rats)
a: 132.3

q: So what Systolic blood pressure did CC1(C)C(=O)N(Cc2ccc(Cl)cc2Cl)C(=O)N1CC(O)CN1CCN(c2ccc(F)cc2)CC1 (stereo not shown) [Compound 8] get with arterial blood pressure of normotensive Wistar rats?
a: 121.5

q: Given the entry CC1(C)C(=O)N(Cc2ccc(Cl)cc2Cl)C(=O)N1CC(O)CN1CCN(c2ccccc2C#N)CC1.Cl (stereo not shown) [Compound 11] , what Systolic blood pressure was observed with arterial blood pressure of normotensive Wistar rats?
a: 117.0

q: Give arterial blood pressure of normotensive Wistar rats Systolic blood pressure for CC1(C)C(=O)N(Cc2ccc(Cl)cc2Cl)C(=O)N1CC(O)CN1CCN(c2ccccc2F)CC1 (stereo not shown) [Compound 7]
a: 125.3
